# Assayed target: T1, recombinant human TfR (2474-TR, R&D Systems), biotinylated (human, UniProt P02786 89-760, biotinylated with EZ-Link NHS-PEG4-Biotinylation Kit)
# T1 construct: Bought protein; also called immobilized recombinant human TfR; biotinylated human TfR
# T1 sequence (P02786 89-760 limits assumed): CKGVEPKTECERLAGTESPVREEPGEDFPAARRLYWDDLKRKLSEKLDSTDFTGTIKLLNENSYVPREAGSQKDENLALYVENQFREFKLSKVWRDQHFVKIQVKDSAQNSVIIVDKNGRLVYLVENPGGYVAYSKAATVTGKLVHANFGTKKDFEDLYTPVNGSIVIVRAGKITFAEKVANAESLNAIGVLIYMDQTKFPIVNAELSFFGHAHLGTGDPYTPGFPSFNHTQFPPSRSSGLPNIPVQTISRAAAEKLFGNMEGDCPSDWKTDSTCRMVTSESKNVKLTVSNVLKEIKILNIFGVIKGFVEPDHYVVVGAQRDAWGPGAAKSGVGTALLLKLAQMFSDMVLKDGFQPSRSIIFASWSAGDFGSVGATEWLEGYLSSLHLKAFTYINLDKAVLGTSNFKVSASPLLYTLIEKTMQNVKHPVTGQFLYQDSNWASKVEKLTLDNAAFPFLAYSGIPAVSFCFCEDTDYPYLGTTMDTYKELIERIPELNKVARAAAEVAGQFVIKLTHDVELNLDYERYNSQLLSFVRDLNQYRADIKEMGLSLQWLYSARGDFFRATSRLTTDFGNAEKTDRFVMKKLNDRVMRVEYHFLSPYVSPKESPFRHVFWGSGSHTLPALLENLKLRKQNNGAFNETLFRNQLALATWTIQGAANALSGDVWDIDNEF
# Protocol details: SPR (Biacore), ratio of the off rates on human TfR at the two pH values; the printed number equals kd at pH 5.5 divided by kd at pH 7.4
Assign off-rate ratio kd pH5.5/kd pH7.4 to each entry below.
Give a plain numeric answer without units written out.

Entry BBB00709 (VHH, also called histidine mutant of BBB00515) VHH: EVQLVESGGGSVQPGGSLRLSCTASGRTFNYAMGWFRQAPGKNREFVATIDWKDHSSYYLDSVRGRFTIERDDAKNTVYLQMNSLRPEDAAVYTCAVGDGDYCSTYTCAAEVEYDYWGQGTLVTVSS — recorded off-rate ratio kd pH5.5/kd pH7.4 = 1.84

Entry BBB00699 (VHH, Histidine mutant) VHH: EVQLVESGGGSVQPGGSLRLSCTASGRTFNHAMGWFRQAPGKNREFVATIDWKDGSSYYLDSVRGRFTIERDDAKNTVYLQMNSLRPEDAAVYTCAVGDGDYCSTYTCAAEVEYDYWGQGTLVTVSS — recorded off-rate ratio kd pH5.5/kd pH7.4 = 1.64

Entry BBB00707 (VHH, Histidine mutant) VHH: EVQLVESGGGSVQPGGSLRLSCTASGRTFNYAMGWFRQAPGKNREFVATIDWHDGSSYYLDSVRGRFTIERDDAKNTVYLQMNSLRPEDAAVYTCAVGDGDYCSTYTCAAEVEYDYWGQGTLVTVSS — recorded off-rate ratio kd pH5.5/kd pH7.4 = 1.44

Entry BBB00729 (VHH, also called histidine mutant of BBB00515) VHH: EVQLVESGGGSVQPGGSLRLSCTASGRTFNYAMGWFRQAPGKNREFVATIDWKDGSSYYLDSVRGRFTIERDDAKNTVYLQMNSLRPEDAAVYTCAVGDGDYCSTYTCAAEVEYDHWGQGTLVTVSS — recorded off-rate ratio kd pH5.5/kd pH7.4 = 2.01

These measurements were taken from patent US20260274981A1.
